target_or_test_system: UniProt:P14616
Sequence (P14616 whole entry, looked up): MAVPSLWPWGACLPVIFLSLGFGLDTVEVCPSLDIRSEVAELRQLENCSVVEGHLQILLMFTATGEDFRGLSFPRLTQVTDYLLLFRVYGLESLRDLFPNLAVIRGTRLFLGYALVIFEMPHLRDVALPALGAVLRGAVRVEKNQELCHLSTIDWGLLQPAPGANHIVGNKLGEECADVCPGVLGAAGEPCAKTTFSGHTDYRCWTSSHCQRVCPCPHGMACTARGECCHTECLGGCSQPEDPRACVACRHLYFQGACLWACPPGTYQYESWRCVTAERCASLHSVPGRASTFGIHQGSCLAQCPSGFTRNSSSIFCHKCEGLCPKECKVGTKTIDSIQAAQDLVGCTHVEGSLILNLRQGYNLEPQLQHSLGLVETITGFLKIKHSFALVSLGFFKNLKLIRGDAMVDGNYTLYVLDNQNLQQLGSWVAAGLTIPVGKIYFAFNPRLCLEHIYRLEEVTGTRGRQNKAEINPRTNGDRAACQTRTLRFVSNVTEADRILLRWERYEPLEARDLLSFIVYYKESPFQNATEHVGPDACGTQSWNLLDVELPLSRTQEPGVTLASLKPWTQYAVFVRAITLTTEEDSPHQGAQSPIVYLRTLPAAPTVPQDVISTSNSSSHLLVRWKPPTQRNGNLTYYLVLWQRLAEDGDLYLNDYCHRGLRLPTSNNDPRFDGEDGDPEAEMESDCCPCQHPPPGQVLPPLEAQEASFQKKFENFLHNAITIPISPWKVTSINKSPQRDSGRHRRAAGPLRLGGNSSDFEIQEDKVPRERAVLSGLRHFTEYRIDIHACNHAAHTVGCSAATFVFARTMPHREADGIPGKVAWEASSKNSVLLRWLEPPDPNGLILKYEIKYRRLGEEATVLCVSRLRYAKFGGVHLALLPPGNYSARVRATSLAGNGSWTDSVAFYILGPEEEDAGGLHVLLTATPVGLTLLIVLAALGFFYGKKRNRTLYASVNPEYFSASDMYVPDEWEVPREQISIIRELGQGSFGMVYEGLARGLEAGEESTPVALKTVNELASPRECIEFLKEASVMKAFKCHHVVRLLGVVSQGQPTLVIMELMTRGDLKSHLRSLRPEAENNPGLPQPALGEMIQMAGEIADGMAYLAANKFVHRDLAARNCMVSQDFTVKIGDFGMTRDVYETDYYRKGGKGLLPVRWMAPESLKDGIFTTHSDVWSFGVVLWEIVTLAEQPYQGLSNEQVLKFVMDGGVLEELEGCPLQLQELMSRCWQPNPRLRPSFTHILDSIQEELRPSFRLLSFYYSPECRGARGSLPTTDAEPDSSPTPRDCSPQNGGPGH
protocol_description: radiometric filter-binding kinase assay, Kinase HotSpot
assay_setup: compound 0.5 µM; ATP 10 µM
Known residual activity of a selection of compounds

{"smiles_data": "CCc1nc(-c2ccc(OC)cc2)[nH]c1-c1ccncc1", "target_or_test_system": "UniProt:P14616", "residual activity [%]": 102}
{"smiles_data": "COc1cc2c(N3CCN(C(=O)Nc4ccc(OC(C)C)cc4)CC3)ncnc2cc1OCCCN1CCCCC1", "target_or_test_system": "UniProt:P14616", "residual activity [%]": 98.9}
{"smiles_data": "COc1cc2ncnc(Nc3ccc(O)c(Br)c3)c2cc1OC", "target_or_test_system": "UniProt:P14616", "residual activity [%]": 96.8}
{"smiles_data": "O=c1c(-c2ccc(F)cc2)c(-c2ccncc2)[nH]n1-c1ccc(Cl)cc1", "target_or_test_system": "UniProt:P14616", "residual activity [%]": 95.4}
{"smiles_data": "c1ccc(-c2cnc(Nc3ccc(OCCN4CCCC4)cc3)s2)cc1", "target_or_test_system": "UniProt:P14616", "residual activity [%]": 99.6}
{"smiles_data": "O=c1[nH]c2ccccc2n1C1CCN(Cc2ccc(-c3nc4cc5[nH]cnc5cc4nc3-c3ccccc3)cc2)CC1", "target_or_test_system": "UniProt:P14616", "residual activity [%]": 101}
{"smiles_data": "O=C1NC(=O)c2cc(Nc3ccc(F)cc3)c(Nc3ccc(F)cc3)cc21", "target_or_test_system": "UniProt:P14616", "residual activity [%]": 111}
{"smiles_data": "CCOc1cc2ncnc(Nc3cccc(Br)c3)c2cc1OCC", "target_or_test_system": "UniProt:P14616", "residual activity [%]": 88.8}
{"smiles_data": "CCCCc1c(-c2ccc(O)cc2)[nH]c2nccnc12", "target_or_test_system": "UniProt:P14616", "residual activity [%]": 86.6}
{"smiles_data": "O=c1cc(N2CCOCC2)oc2c(-c3ccccc3)cccc12", "target_or_test_system": "UniProt:P14616", "residual activity [%]": 97.7}
{"smiles_data": "Nc1ncnc2c1cnn2-c1ccccc1", "target_or_test_system": "UniProt:P14616", "residual activity [%]": 106}
{"smiles_data": "O=c1c2ccccc2[nH]c(=S)n1CCN1CCC(=C(c2ccc(F)cc2)c2ccc(F)cc2)CC1", "target_or_test_system": "UniProt:P14616", "residual activity [%]": 98.3}
{"smiles_data": "N#C/C(=C1/Nc2ccccc2S1)c1ccnc(NCCc2cccnc2)n1", "target_or_test_system": "UniProt:P14616", "residual activity [%]": 92.2}
{"smiles_data": "O=C(O)c1ccc2c3c1cccc3c(=O)n1c3ccccc3nc21", "target_or_test_system": "UniProt:P14616", "residual activity [%]": 101}
{"smiles_data": "COc1cc2c(cc1OC)-c1[nH]nc(Nc3cccc(F)c3)c1C2", "target_or_test_system": "UniProt:P14616", "residual activity [%]": 99.2}
{"smiles_data": "COc1cccc(-c2cc(=O)c3ccccc3o2)c1N", "target_or_test_system": "UniProt:P14616", "residual activity [%]": 98.4}
{"smiles_data": "O=C(c1ccccc1)c1ccc(N2CCOCC2)cc1O", "target_or_test_system": "UniProt:P14616", "residual activity [%]": 97.6}
{"smiles_data": "Cn1cc(/C=C2\\C(=O)Nc3ccc(S(N)(=O)=O)cc32)c2ccccc21", "target_or_test_system": "UniProt:P14616", "residual activity [%]": 86.9}
{"smiles_data": "N/C(=N\\N=C/c1ccc(-c2cccc([N+](=O)[O-])c2)o1)N[N+](=O)[O-]", "target_or_test_system": "UniProt:P14616", "residual activity [%]": 99.2}
{"smiles_data": "COc1cc2c(Nc3ccc(Br)cc3F)ncnc2cc1OCC1CCN(C)CC1", "target_or_test_system": "UniProt:P14616", "residual activity [%]": 105}
{"smiles_data": "O=S(=O)(NCCNC/C=C/c1ccc(Br)cc1)c1cccc2cnccc12", "target_or_test_system": "UniProt:P14616", "residual activity [%]": 103}
{"smiles_data": "O=C1NC(=O)c2c1c1c3ccccc3[nH]c1c1[nH]c3cc(Br)ccc3c21", "target_or_test_system": "UniProt:P14616", "residual activity [%]": 85.8}
{"smiles_data": "Cc1cc(Nc2nc(-c3ccccc3)nc3ccccc23)n[nH]1", "target_or_test_system": "UniProt:P14616", "residual activity [%]": 20.7}
{"smiles_data": "N#Cc1c(NC(=O)c2cccc3ccccc23)sc2c1CCCC2", "target_or_test_system": "UniProt:P14616", "residual activity [%]": 94.3}
{"smiles_data": "FC(F)(F)c1ccc(/C=C/c2nc(COc3ccc(CCCCn4ccnn4)cc3)co2)cc1", "target_or_test_system": "UniProt:P14616", "residual activity [%]": 101}
{"smiles_data": "N#CCCc1ccc2c(c1)-c1[nH]c3ccc([N+](=O)[O-])cc3c1CC(=O)N2", "target_or_test_system": "UniProt:P14616", "residual activity [%]": 99.2}

Data credit: the kinase profiling compilation of Christmann-Franck et al. (2016)
